The origin of these recorded values is patent US20240270821A1.

EC50 overview
Biological target: hGLP-1R (Homo sapiens)
Sequence (P43220 24-463): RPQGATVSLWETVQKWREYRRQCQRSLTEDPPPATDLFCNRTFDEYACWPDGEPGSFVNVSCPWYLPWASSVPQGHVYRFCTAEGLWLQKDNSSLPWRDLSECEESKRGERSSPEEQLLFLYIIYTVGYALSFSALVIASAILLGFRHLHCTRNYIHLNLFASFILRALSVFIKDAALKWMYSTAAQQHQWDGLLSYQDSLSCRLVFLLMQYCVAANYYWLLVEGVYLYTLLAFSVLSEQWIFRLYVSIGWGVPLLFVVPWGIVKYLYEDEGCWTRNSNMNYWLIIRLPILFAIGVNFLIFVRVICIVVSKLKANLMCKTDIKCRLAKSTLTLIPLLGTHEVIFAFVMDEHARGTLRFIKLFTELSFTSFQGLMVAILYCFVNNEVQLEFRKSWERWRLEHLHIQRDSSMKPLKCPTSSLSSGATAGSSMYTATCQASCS
Assay: Functional cAMP activation in the presence of 0.1% casein (no HSA);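 also: intracellular cAMP rise after 30 min at 37 °C read by HTRF, normalized between buffer only (0%) and maximal control ligand (100%), four-parameter variable-slope fit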
Type: cell-based
Conditions: in the presence of 0.1% casein (no HSA); geometric mean; read-out: Relative cAMP EC50, hGLP-1R
Starred links: 1 amine or outer side, 2 acyl side, 3 side chain; linkers in the order of their positions; H or OH if unused. Non-standard residues stand in square brackets, D forms with d. Groups on a side chain read outwards from the residue. No end group written: not given here. *: point of attachment. C18 diacid = O=C(O)CCCCCCCCCCCCCCCCC(=O)*; αMePhe(2-F) = C[C@](N)(Cc1ccccc1F)C(=O)O; γGlu = O=C(O)[C@H](CCC(=O)[*:2])N[*:1]; αMe4Pal = C[C@](N)(Cc1ccncc1)C(=O)O; αMeY = C[C@](N)(Cc1ccc(O)cc1)C(=O)O; 4Pal = N[C@@H](Cc1ccncc1)C(=O)O; αMeL = CC(C)C[C@](C)(N)C(=O)O; αMeS = C[C@](N)(CO)C(=O)O; Orn = NCCC[C@H](N)C(=O)O; Dab = NCC[C@H](N)C(=O)O; AEEA = NCCOCCOCC(=O)O; Aib = CC(C)(N)C(=O)O
Numeric answer only, unit nM assumed.

Check out these entries, answers already filled in.
1) H-Y[Aib]QGTFTSD[4Pal]SQ[αMeL]LD[Orn]K([dE-γGlu-C18 diacid])AQ[αMe4Pal]AFIQ[αMeY]LIA[Aib]GPSSGEPPPSGGGE-NH2 [Example 1130] ... 0.641
2) H-Y[Aib]QGTFTSDFS[Orn][αMeL]LDKK([γGlu-γGlu-γGlu-C18 diacid])AQ[Aib]AFIEYLLE[Aib]GPSSGAPPPSGS-NH2 [Example 202] ... 4.79
3) H-Y[Aib]QGT[αMePhe(2-F)]TSD[4Pal][αMeS]I[αMeL]LD[Orn]K([AEEA-γGlu-C18 diacid])AQ[αMe4Pal]EFI[dE][αMeY]LIEGGPSSGAPPPTGE-NH2 [Example 1142] ... 0.329
4) Y[Aib]QGTFTSDFS[Dab][αMeL]LDKK([AEEA-γGlu-C18 diacid])AQ[Aib]AFIEYLLEGGPSSGAPPPGGS-NH2 [Example 67] ... 4.07

# ---- query substance ----
Exercise: EC50 for H-Y[Aib]QGTFTSD[4Pal]S[Orn][αMeL]LD[Orn]K([dE-γGlu-C18 diacid])AQ[αMe4Pal]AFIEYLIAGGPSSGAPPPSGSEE-NH2 [Example 1063] ?
Solution: 6.96
